Each recorded value in this set is attributed to patent US20220280594A1.

# Test system: human prostate cancer cells (22RV1)
# METHOD_SUMMARY: scratch assay, migration of 22RV1 cells
# Format: cell-based
# CONDITION_DETAILS: 22RV1, 10 μM, 48 hours; control group 25.41 ± 5.01
Ends that are not written are not given here. PEG = not defined here
MEASUREMENT_TYPE: Migration rate (%) (mean ± SD, P)

- SUBSTANCE: "N29: SEQ ID NO: 1 with deletion of positions 1-5 and 15-18 and PEG modification at the amino terminal ({PEG}-LAKENVTQD; reading uncertain)"
  OBSERVED_VALUE: "9.99 ± 3.89,* %"
- SUBSTANCE: "N45: SEQ ID NO: 1 with V11R, deletion of positions 1-5 and 15-18, PEG modification at the carboxyl terminal (LAKENRTQD-{PEG}; reading uncertain)"
  OBSERVED_VALUE: "11.63 ± 2.82,* %"
- SUBSTANCE: "N14: SEQ ID NO: 1 with deletion of positions 1-5 and addition of one amino acid at the carboxyl terminal (LAKENVTQDAEDNC)"
  OBSERVED_VALUE: "14.06 ± 2.37,* %"
- SUBSTANCE: "N42: SEQ ID NO: 1 with deletion of positions 1-5 and 15-18, PEG at the amino terminal, one amino acid added at the carboxyl terminal ({PEG}-LAKENVTQDR; reading uncertain)"
  OBSERVED_VALUE: "5.89 ± 1.02,** %"
- SUBSTANCE: "N24: SEQ ID NO: 1 with substitution A7R, deletion of positions 1-2 and of position 18 (VRFLRKENVTQDAED)"
  OBSERVED_VALUE: "8.44 ± 1.63,** %"

###

# Test system: human prostate cancer cells (22RV1)
# METHOD_SUMMARY: scratch assay, migration of 22RV1 cells
# Type: cell-based
# CONDITION_DETAILS: 22RV1, 10 μM, 48 hours; control group 25.41 ± 5.01
Ends that are not written are not given here. PEG = not defined here

- SUBSTANCE: "N49: SEQ ID NO: 1 with A7R, deletion of positions 1-2 and position 18, PEG modification at the carboxyl terminal (VRFLRKENVTQDAED-{PEG}; reading uncertain)"
  Migration rate (%) (mean ± SD, P): "6.18 ± 1.89,** %"
- SUBSTANCE: "N18: SEQ ID NO: 1 with addition of one amino acid at the amino terminal and one at the carboxyl terminal (FYRVRFLAKENVTQDAEDNC)"
  Migration rate (%) (mean ± SD, P): "6.75 ± 3.22,** %"
- SUBSTANCE: "N35: SEQ ID NO: 1 with A15R, addition of one amino acid and PEG modification at the carboxyl terminal (YRVRFLAKENVTQDREDNC-{PEG}; reading uncertain)"
  Migration rate (%) (mean ± SD, P): "7.13 ± 2.23,** %"

###

# Test system: human lung squamous carcinoma cells (NCI-H226)
# METHOD_SUMMARY: scratch assay, migration of NCI-H226 cells
# Assay type: cell-based
# CONDITION_DETAILS: NCI-H226, 10 μM, 48 hours; control group 65.31 ± 3.19
Ends that are not written are not given here. PEG = not defined here

- SUBSTANCE: "N37: SEQ ID NO: 1 with addition of two amino acids to the carboxyl terminal and PEG modification at the amino terminal ({PEG}-YRVRFLAKENVTQDAEDNCT; reading uncertain)"
  Migration rate (%) (mean ± SD, P): "11.33 ± 9.49,*** %"
- SUBSTANCE: "N2: SEQ ID NO: 1 with deletion of one amino acid (position 18) at the carboxyl terminal (YRVRFLAKENVTQDAED)"
  Migration rate (%) (mean ± SD, P): "12.42 ± 8.44,*** %"
- SUBSTANCE: "N4: SEQ ID NO: 1 with deletion of positions 15-18 and positions 1-3 (RFLAKENVTQD)"
  Migration rate (%) (mean ± SD, P): "10.00 ± 10.27,** %"
